Source of measurements: the supplement of paper PMC10567573

B1: PLD5 (parent)
chain: WIVDKQHVYIGSAGLDWQSLGQMK

variants of: B1; assay: protein stability index of a GFP-peptide fusion (GPS, HEK-293T) (PSI 1-6); higher = more stable; conditions: c terminus: a fixed tail appended;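 also: lentivirally expressed fusions sorted by FACS into six bins by GFP to DsRed ratio, PSI derived from sequencing read proportions per bin multiplied by bin number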
Record form. Attribute: protein stability index. Fill in for each entry.

Query: Bench note: what protein stability index did `V3L` show?
Result: 2.01

Query: Give its protein stability index value. Item: `V3D`
Result: 2.02

Query: Value lookup for protein stability index; key = `Q18A`
Result: 1.95
